Below: a set of entries, each annotated with reported Maximum_MFI.
- TARGET ENTITY: T1, human MSLN on OVCAR3 tumor cells (human, UniProt Q13421 296-598)
- T1 construct: whole, on cells; also called human MSLN protein
- T1 sequence (Q13421 other isoform, or with tags, fused parts or gaps): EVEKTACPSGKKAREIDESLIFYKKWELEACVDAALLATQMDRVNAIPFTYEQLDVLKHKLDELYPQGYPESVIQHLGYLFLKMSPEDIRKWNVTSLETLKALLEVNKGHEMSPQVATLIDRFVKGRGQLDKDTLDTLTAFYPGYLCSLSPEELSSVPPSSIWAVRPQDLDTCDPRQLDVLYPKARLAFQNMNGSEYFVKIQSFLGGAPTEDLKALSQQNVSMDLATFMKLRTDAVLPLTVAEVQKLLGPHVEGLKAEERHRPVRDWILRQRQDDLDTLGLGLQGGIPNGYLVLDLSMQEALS
- PROCEDURE DETAILS: FACS, OVCAR3 cells

BINDER	READOUT UNIT	Maximum_MFI
F7.44.20-H7 (scFv, not shown: small tags and cut ends, also called S009-F7.44.20 humanized antibody VH1a + VL3) scFv: EVQLVQSGAEVKKPGASVKVSCKASGYTFTDYNMDWVRQAPGQGLEWMGDINPSTGGTIYNQKFQGRVTMTEDKSTSTVYMELSSLRSEDTAVYYCARRRIGTGYFDVWGQGTTVTVSSGGGGSGGGGSGGGGSEIVLTQSPATLSLSPGERATLSCSASSSVISSYLSWYQQKPGQSPRLLIYRTSNLASGIPARFSGSGSGTDYTLTISSLEPEDFAVYYCHQWSSFPYTFGGGTKVEIK	MFI	1840
F7.44.20-H8 (scFv, not shown: small tags and cut ends, also called S009-F7.44.20 humanized antibody VH1a + VL4) scFv: EVQLVQSGAEVKKPGASVKVSCKASGYTFTDYNMDWVRQAPGQGLEWMGDINPSTGGTIYNQKFQGRVTMTEDKSTSTVYMELSSLRSEDTAVYYCARRRIGTGYFDVWGQGTTVTVSSGGGGSGGGGSGGGGSEIVLTQSPATLSLSPGERATLSCSASSSVISSYLSWYQQKPGSSPRLLIYRTSNLASGIPARFSGSGSGTDYTLTISSLEPEDFAVYYCHQWSSFPYTFGGGTKVEIK	MFI	1880
F7.44.20-H5 (scFv, not shown: small tags and cut ends, also called S009-F7.44.20 humanized antibody VH1a + VL1) scFv: EVQLVQSGAEVKKPGASVKVSCKASGYTFTDYNMDWVRQAPGQGLEWMGDINPSTGGTIYNQKFQGRVTMTEDKSTSTVYMELSSLRSEDTAVYYCARRRIGTGYFDVWGQGTTVTVSSGGGGSGGGGSGGGGSEIVLTQSPDFQSVTPKEKVTITCSASSSVISSYLSWYQQKPDQSPKLLIYRTSNLASGVPSRFSGSGSGTDFTLTINSLEAEDAATYYCHQWSSFPYTFGGGTKVEIK	MFI	1960
